B1: COUP transcription factor 1, residues 83 to 159; numbered along this chain, P10589 (parent)
chain: HIECVVCGDKSSGKHYGQFTCEGCKSFFKRSVRRNLTYTCRANRNCPIDQHHRNQCQYCRLKKCLKVGMRREAVQRG

- Variants of: B1
- assay comment: abundance fitness (aPCA) (normalised: wild type 0, dead -1); higher = more abundant; growth selection in yeast, the domain comes from the species named
- details: Homo sapiens
The following variants are shown together with reported abundance fitness values.
# respond with the number and nothing more

# input Query abundance fitness for K29T
# output 0.026

These measurements were taken from the Human Domainome abundance scans (Beltran et al. 2025).
